tgt: Serotonin 1A (5-HT1A) receptor (Rattus norvegicus, UniProt P19327)
Construct: The cortex tissue were homogenized in 30 volumes of ice-cold 50 mM Tris-HCl buffer; from tissue; host or cells: Sprague-Dawley rat brain cortex membranes
Sequence (P19327 whole entry): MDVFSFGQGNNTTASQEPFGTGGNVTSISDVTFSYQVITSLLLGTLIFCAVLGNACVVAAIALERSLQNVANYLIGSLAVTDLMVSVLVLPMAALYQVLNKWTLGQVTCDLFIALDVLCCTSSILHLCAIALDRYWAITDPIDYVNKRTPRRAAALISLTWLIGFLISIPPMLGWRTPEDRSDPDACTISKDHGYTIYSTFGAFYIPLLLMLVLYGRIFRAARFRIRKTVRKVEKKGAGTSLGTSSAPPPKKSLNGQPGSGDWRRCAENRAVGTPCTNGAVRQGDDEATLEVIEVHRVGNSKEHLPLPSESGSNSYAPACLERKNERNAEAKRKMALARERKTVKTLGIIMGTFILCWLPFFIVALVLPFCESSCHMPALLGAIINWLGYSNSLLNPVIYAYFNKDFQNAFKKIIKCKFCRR
experimental.details: Serotonin 1A (5-HT1A) receptor inhibition assay, [3H]8-OH-DPAT binding to rat cortex membranes
Design: species or system Sprague-Dawley (SD) rats
measurement.parameters: 10 nM test compound; 0.92 nM [3H]8-OH-DPAT; rat cortex homogenate; 60 min at 25° C.
Where a name gives a salt, the structure may show the parent alone.
test.readout: inhibition at 0.01 µM (%)
Give bare numbers, in %.

CN1CCN(Cc2ccc(OCCCCN3CCN(c4cccc(Cl)c4Cl)CC3)cc2)CC1 [Example 41]; 82.1
Clc1ccccc1N1CCN(CCCCOc2ccc(Cn3ccnn3)cc2)CC1 [Example 42]; 36.2
COc1ccccc1N1CCN(CCCCOc2ccc(CCn3ccnc3)cc2)CC1 [Example 47]; 70
COc1ccccc1N1CCN(CCCCOc2ccc(Cn3ccnn3)cc2)CC1 [Example 12]; 60.9
COc1ccccc1N1CCN(CCCCOc2cccc(CN3CCOCC3)c2)CC1 [Example 29]; 45.8
COc1ccccc1N1CCN(CCCCOc2cccc(Cn3ncnn3)c2)CC1 [Example 8, hydrochloride]; 81.6

Lab note: each compound below needs its inhibition at 0.01 µM filled in.
1. CN(C)Cc1ccc(OCCCCN2CCN(c3cccc(Cl)c3Cl)CC2)cc1 [Example 39]
2. COc1ccccc1N1CCN(CCCCOc2ccc(CN3CCCCC3)cc2)CC1 [Example 20]

A:
1: 52.9; 2: 68.5

Lab note: each compound below needs its inhibition at 0.01 µM filled in.
1. Clc1ccccc1N1CCN(CCCCOc2ccc(Cn3ncnn3)cc2)CC1 [Example 31]
2. Clc1cccc(N2CCN(CCCCOc3ccc(Cn4ccnn4)cc3)CC2)c1Cl [Example 44]
3. COc1ccccc1N1CCN(CCCCOc2ccc(Cn3ccnc3C)cc2)CC1 [Example 10]
4. COc1ccccc1N1CCN(CCCCOc2ccc(Cn3cnnn3)cc2)CC1 [Example 3]
5. COc1ccccc1N1CCN(CCCCOc2cccc(Cn3nnc(C)n3)c2)CC1 [Example 26]

A:
30.3
17.4
71.8
77.8
47

Lab note: each compound below needs its inhibition at 0.01 µM filled in.
1. Cc1nnn(Cc2ccc(OCCCCN3CCN(c4cccc(Cl)c4Cl)CC3)cc2)n1 [Example 38]
2. COc1ccccc1N1CCN(CCCCOc2ccc(CCn3nnc(C)n3)cc2)CC1 [Example 54]
3. COc1ccccc1N1CCN(CCCCOc2ccc(Cn3ccnc3)cc2)CC1 [Example 1]
4. COc1ccccc1N1CCN(CCCCOc2ccc(Cn3cnc(Cl)c3Cl)cc2)CC1 [Example 30]
5. COc1ccccc1N1CCN(CCCCOc2ccc(CCn3cncn3)cc2)CC1 [Example 48]

A:
1. 29.4
2. 71
3. 83.1
4. 38.3
5. 48

Reference source for all entries: patent US8772299B2
